B1: Retinoic acid receptor RXR-alpha, residues 132 to 208; numbered along this chain, P19793 (parent)
chain: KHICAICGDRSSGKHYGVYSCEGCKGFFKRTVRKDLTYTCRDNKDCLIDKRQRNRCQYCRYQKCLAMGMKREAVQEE

variants of: B1; assay: abundance fitness (aPCA) (normalised: wild type 0, dead -1); higher = more abundant; growth selection in yeast, the domain comes from the species named; details: Homo sapiens
abundance fitness: recorded values
measurementKind: abundance fitness

- sequenceChange: "K44G"
  reading: 0.052
- sequenceChange: "I3K"
  reading: -0.144
- sequenceChange: "R41Y"
  reading: -0.002
